- System: HCC-44
- protocol-text: relative viability (nuclei count vs DMSO), 5 days (fraction); higher = more cells survive
- condition-details: first compound 0.253 µM
Cut-off 0.9 on relative viability: below means satisfied, at or above means not satisfied.

These recorded examples may help you get a feel for the data.
# compound, cat
measured = [
    ("Cc1cnc(-c2cnc(NCCNc3ccc(C#N)cn3)nc2-c2ccc(Cl)cc2Cl)[nH]1 + O=C(c1cc(Cc2n[nH]c(=O)c3ccccc23)ccc1F)N1CCN(C(=O)C2CC2)CC1 [Olaparib] (partner 8 µM)", "not satisfied"),
    ("Cc1cnc(-c2cnc(NCCNc3ccc(C#N)cn3)nc2-c2ccc(Cl)cc2Cl)[nH]1 + O=C(CCCCCCC(=O)Nc1ccccc1)NO [Vorinostat] (partner 1 µM)", "not satisfied"),
    ("O=c1[nH]c2ccccc2n1C1CCN(CCCC(c2ccc(F)cc2)c2ccc(F)cc2)CC1 [Pimozide] + O=C(c1cc(Cc2n[nH]c(=O)c3ccccc23)ccc1F)N1CCN(C(=O)C2CC2)CC1 [Olaparib] (partner 8 µM)", "not satisfied"),
    ("O=c1[nH]c2ccccc2n1C1CCN(CCCC(c2ccc(F)cc2)c2ccc(F)cc2)CC1 [Pimozide] + C[C@]1(O)C[C@@H](c2nc(-c3ccc4ccc(-c5ccccc5)nc4c3)c3c(N)nccn32)C1 [Linsitinib] (partner 1 µM)", "satisfied"),
    ("Cc1cnc(-c2cnc(NCCNc3ccc(C#N)cn3)nc2-c2ccc(Cl)cc2Cl)[nH]1 + Cc1cc(Nc2cc(N3CCN(C)CC3)nc(Sc3ccc(NC(=O)C4CC4)cc3)n2)n[nH]1 [Tozasertib] (partner 0.1 µM)", "satisfied"),
    ("Cc1cnc(-c2cnc(NCCNc3ccc(C#N)cn3)nc2-c2ccc(Cl)cc2Cl)[nH]1 + Cc1nc(NC(=O)N2CCC[C@H]2C(N)=O)sc1-c1ccnc(C(C)(C)C(F)(F)F)c1 [Alpelisib] (partner 2 µM)", "satisfied"),
]

Input: Problem: For the compound Cc1cnc(-c2cnc(NCCNc3ccc(C#N)cn3)nc2-c2ccc(Cl)cc2Cl)[nH]1 + CS(=O)(=O)CCNCc1ccc(-c2ccc3ncnc(Nc4ccc(OCc5cccc(F)c5)c(Cl)c4)c3c2)o1 [Lapatinib] (partner 2 µM) , is relative viability under 0.9?
Output: satisfied

Input: And for O=c1[nH]c2ccccc2n1C1CCN(CCCC(c2ccc(F)cc2)c2ccc(F)cc2)CC1 [Pimozide] + CC1(C)CCC(c2ccc(Cl)cc2)=C(CN2CCN(c3ccc(C(=O)NS(=O)(=O)c4ccc(N[C@H](CCN5CCOCC5)CSc5ccccc5)c(S(=O)(=O)C(F)(F)F)c4)cc3)CC2)C1 [Navitoclax] (partner 0.5 µM) ?
Output: not satisfied
